tested on: M19-MEL; test: NCI tumour cell line growth inhibition, 48 h
Active and inactive are the calls of the source. Rule as the data show it: active = GI50 up to about 1.1 µM and inactive = higher.
GI50: recorded values
Observation type: GI50

| Molecule | Reported measurement |
| --- | --- |
| O=C(CSc1nnc(Cc2ccccc2)o1)Nc1ccc(Cl)cc1Cl | > 100 µM (inactive) |
| CCOC(=O)N1N=NC2C3OC(C[C@@]3(C#N)OC(C)=O)[C@H]21 (some centres not stated) | > 100 µM (inactive) |
| Cc1cc(O)nc(NN2C(Cl)C(=O)C2c2cccc(Cl)c2)n1 (configuration not stated) | 33.9 µM (inactive) |
| CCc1cccc(C)c1NC(=O)CCc1n[nH]c(=S)o1 | > 100 µM (inactive) |
| Nc1nncc2c1c(Br)cn2C1OC(CO)C(O)C1O (configuration not stated) | > 100 µM (inactive) |
| CN(C)CCC(/C=C/c1ccccc1)=N\Nc1ccc(Cl)c(Cl)c1 | 4.31 µM (inactive) |
| O=C1CCCN1CCC/N=c1/cc2n(-c3ccc(Cl)cc3)c3ccccc3nc-2cc1Nc1ccc(Cl)cc1 | 2.32 µM (inactive) |
| COC(=O)C(Cc1ccccc1)NC(=O)Cn1ccnc1[N+](=O)[O-] (configuration not stated) | 95.3 µM (inactive) |
| Fc1ccc(C2SCc3nc4ccccc4n32)cc1Cl (configuration not stated) | 19.8 µM (inactive) |
| Cc1ccc([N+](=O)[O-])cc1NC(=O)/C(CC(=O)c1sc(C(N)=S)nc1C)=N\N | 71.8 µM (inactive) |
| NC(N)NCCCc1cn2c(n1)C1CCCN1C(=O)C2Cc1ccccc1 (configuration not stated) | > 100 µM (inactive) |
| Nc1nc(Cl)nc2c1ncn2C1CC(O)C(CO)O1 (configuration not stated) | > 30.3 µM (inactive) |
| Cn1c(=O)oc2cc(C3CCC(=O)N3Cc3csc(-c4ccccc4)n3)ccc21 (configuration not stated) | > 100 µM (inactive) |
| COCCCNC(=O)CC(=O)NCCCOC | > 100 µM (inactive) |
| N#CCCN(c1ccc(/C=C2\N=C(c3ccc(Cl)cc3)OC2=O)cc1)S(=O)(=O)c1ccccc1 | > 100 µM (inactive) |
| CC(C)(C)c1ccc2c(c1)OP1(Oc3c(Cl)cc(Cl)c4cccnc34)(O2)Oc2ccc(C(C)(C)C)cc2O1 | 3.12 µM (inactive) |
| CC1(C)C2CCC3(C2)CS(=O)(=O)N2OC231 (configuration not stated) | 15.7 µM (inactive) |
